Source: the RNAGym collection of RNA variant scans (doi:10.1093/nar/gkz1192)

B1: CPEB3 Ribozyme (parent)
chain: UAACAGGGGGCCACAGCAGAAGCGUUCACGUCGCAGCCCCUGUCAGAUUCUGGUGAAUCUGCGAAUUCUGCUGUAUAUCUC

variants of: B1; test: self-cleavage, relative activity (ratio to wild type); higher = more cleavage; in vitro, sequencing
endpoint_name: self-cleavage

mutant="U43A U78A" readout_value=1.29
mutant="A18G A28C" readout_value=0.38
mutant="A18G C71U" readout_value=0.28
mutant="A20U C34U" readout_value=0.34
mutant="A3G G61U" readout_value=0.8
mutant="G42A A57G" readout_value=0.16
mutant="G30U U31C" readout_value=0.43
mutant="A20U U67G" readout_value=0.44
mutant="A45G U80G" readout_value=1.02
mutant="C4U C40U" readout_value=0.86
mutant="G36A U72C" readout_value=0.25
mutant="A18G G52C" readout_value=0.94
mutant="C23U A35U" readout_value=0.16
mutant="U25A A47U" readout_value=0.27
mutant="A15U A47C" readout_value=0.29
mutant="G9A C17U" readout_value=0.23
mutant="A3G C32U" readout_value=0.45
mutant="U31A C81U" readout_value=0.58
mutant="G46C U54A" readout_value=0.15
mutant="A13U U26C" readout_value=0.64
mutant="C44U A45C" readout_value=0.46
mutant="G16A U51C" readout_value=0.18
mutant=G42A readout_value=0.34
mutant="C4U C37U" readout_value=0.91
mutant="C29U G73C" readout_value=1.15
mutant="G16C U78C" readout_value=0.22
mutant="G53C U78C" readout_value=1.08
mutant="A28G A65G" readout_value=0.33
mutant="G8C C38U" readout_value=0.07
mutant="A20G A77U" readout_value=0.83
mutant="C29U A65G" readout_value=0.27
mutant="A13G U67C" readout_value=0.25
mutant="U48A U60C" readout_value=0.14
mutant="A20U U78A" readout_value=0.43
mutant="U43C U60A" readout_value=0.27
mutant="U1C C71U" readout_value=0.54
mutant="A21G A45G" readout_value=0.44
mutant="U48C C79G" readout_value=0.74
mutant="A35C U54C" readout_value=0.8
mutant="A3G U80G" readout_value=1.12
mutant="C27A C39A" readout_value=0.2
mutant="A3G C32A" readout_value=0.14
mutant="C12G U72A" readout_value=0.29
mutant="C17A U31A" readout_value=0.15
mutant="A20G G22A" readout_value=0.46
mutant="A3C C81G" readout_value=1.19
mutant="G16U U43C" readout_value=0.15
mutant="C38A U60A" readout_value=0.2
mutant="C34U U80C" readout_value=0.58
mutant="G9A U25C" readout_value=0.21
mutant="A28C U58G" readout_value=0.2
mutant="A5U U43A" readout_value=1.24
mutant="A3G C79A" readout_value=1.05
mutant="G8A C68A" readout_value=0.2
mutant="A64U C81A" readout_value=0.42
mutant="U31A A57G" readout_value=0.53
mutant="G55A U69A" readout_value=0.39
mutant="G36U C37U" readout_value=0.1
mutant="U51C G73A" readout_value=1.24
mutant="U25A A28C" readout_value=0.39
mutant="U48G U76A" readout_value=0.43
mutant="U41A C81G" readout_value=0.25
mutant="C32U U41C" readout_value=0.26
mutant="C32A U41C" readout_value=0.36
mutant="G46U U51C" readout_value=0.28
mutant="C40U G55A" readout_value=0.67
mutant="U1C U78C" readout_value=0.8
mutant="U26A U66C" readout_value=0.34
mutant="A21C G55C" readout_value=0.21
mutant="G52U U76A" readout_value=1.24
mutant="G16A A45C" readout_value=0.14
mutant="A18G U74C" readout_value=1.1
mutant="U69C A77C" readout_value=0.54
mutant="C40A U74A" readout_value=0.3
mutant="A64U A77G" readout_value=0.39
mutant="A5G A75C" readout_value=0.57
mutant="G6C G19U" readout_value=0.2
mutant="A28G U58G" readout_value=0.46
mutant="A5U U51C" readout_value=1.13
mutant="A15U A47G" readout_value=0.51
mutant="A13C U26A" readout_value=0.61
mutant="G33C U67C" readout_value=0.12
mutant="C59A U67A" readout_value=0.26
mutant="U43A A47G" readout_value=1.06
mutant="U26C C81U" readout_value=0.5
mutant="G24C A57G" readout_value=0.11
mutant="G36U A47G" readout_value=0.11
mutant="C59U A65G" readout_value=0.4
mutant="C62U U72G" readout_value=0.29
mutant="A20U A77G" readout_value=0.39
mutant="A3C G24A" readout_value=0.29
